# Method: The inhibitory activity of compound against MraY or MurG at 100 ug/mL; Inhibit
Measure: Inhibitory activity

{"columns": ["Compound", "Measure", "Obs Value"],
 "data": [
  ["COc1ccc(Cn2c(=O)ccn([C@@H]3OC([C@H](O)[C@H](NCCCNC(=O)[C@H](N)CCCCNC(=O)OCc4ccccc4)C(=O)OC(C)(C)C)[C@@H](O[Si](C)(C)C(C)(C)C)[C@H]3O[Si](C)(C)C(C)(C)C)c2=O)cc1 (some centres not stated)", "Inhibitory activity", "Inhibit"],
  ["COc1ccc(Cn2c(=O)ccn([C@@H]3OC([C@H](O)[C@H](NCCCNC(=O)[C@@H](C)N)C(=O)OC(C)(C)C)[C@@H](O[Si](C)(C)C(C)(C)C)[C@H]3O[Si](C)(C)C(C)(C)C)c2=O)cc1 (some centres not stated)", "Inhibitory activity", "Inhibit"]
]}
